Test system: Escherichia coli TOP10;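 further: peptides expressed intracellularly from a pBAD plasmid library in pooled LB shake-flask culture, induced with 0.3% L-arabinose, DNA abundance read by NGS, three biological replicates, DESeq2 with apeglm shrinkage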
Test: shrunken log2 fold change of peptide-encoding DNA abundance (4.5 h post-induction vs induction); higher = less antimicrobial activity (less host growth inhibition)
Settings: time post-induction: 4.5 h; library: site-saturation at positions 5, 18, 19, 20
shrunken log2 fold change reference
quantity measured: shrunken log2 fold change

residue codes	tested on	value
RRIRTRPPRLPRPRPRPICAPRP	Escherichia coli TOP10	0.0827
RRIRKRPPRLPRPRPRPPTSPRP	Escherichia coli TOP10	0.146
RRIRIRPPRLPRPRPRPCNYPRP	Escherichia coli TOP10	-0.103
RRIRMRPPRLPRPRPRPELDPRP	Escherichia coli TOP10	2.77
RRIRGRPPRLPRPRPRPAQPPRP	Escherichia coli TOP10	0.377
RRIRPRPPRLPRPRPRPQWKPRP	Escherichia coli TOP10	0.0366
RRIRIRPPRLPRPRPRPHTPPRP	Escherichia coli TOP10	-0.721
RRIRSRPPRLPRPRPRPIMPPRP	Escherichia coli TOP10	-0.121

This collection of values is drawn from the supplement of paper PMC9112550.
